- Assayed Target: NTRK1 (human) (UniProt P04629)
- Sequence (P04629 whole entry, looked up): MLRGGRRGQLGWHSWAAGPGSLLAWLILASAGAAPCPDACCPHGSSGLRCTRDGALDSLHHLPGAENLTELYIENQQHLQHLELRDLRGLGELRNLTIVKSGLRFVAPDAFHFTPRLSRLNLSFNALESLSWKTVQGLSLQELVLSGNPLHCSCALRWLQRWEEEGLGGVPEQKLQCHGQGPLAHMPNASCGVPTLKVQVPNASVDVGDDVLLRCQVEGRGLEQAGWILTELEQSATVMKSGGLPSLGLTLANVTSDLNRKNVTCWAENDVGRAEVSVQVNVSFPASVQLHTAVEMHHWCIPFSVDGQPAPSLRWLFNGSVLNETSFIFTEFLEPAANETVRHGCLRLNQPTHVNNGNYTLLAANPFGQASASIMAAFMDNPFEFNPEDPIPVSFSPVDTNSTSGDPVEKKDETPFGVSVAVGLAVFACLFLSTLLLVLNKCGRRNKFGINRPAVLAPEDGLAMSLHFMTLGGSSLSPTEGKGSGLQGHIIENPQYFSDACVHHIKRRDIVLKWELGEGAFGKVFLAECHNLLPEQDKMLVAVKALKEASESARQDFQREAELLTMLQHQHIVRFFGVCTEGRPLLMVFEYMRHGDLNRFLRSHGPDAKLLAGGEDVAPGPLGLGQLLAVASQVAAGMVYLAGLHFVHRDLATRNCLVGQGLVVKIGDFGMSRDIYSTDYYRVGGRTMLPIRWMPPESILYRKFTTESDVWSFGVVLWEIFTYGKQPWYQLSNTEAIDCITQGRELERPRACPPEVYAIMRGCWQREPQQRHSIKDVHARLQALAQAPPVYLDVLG
- Experiment Summary: KINOMEscan competition binding
- Applied Conditions: compound 10.0 µM
Readout Kind: kinase still bound, per cent of control

{"columns": ["Item Smiles", "Readout Kind", "Result"],
 "data": [
  ["CCS(=O)(=O)Nc1ccc2c(c1)[C@H](/C(=N/c1ccc(CN3CCCCC3)cc1)c1ccccc1)C(=O)N2", "kinase still bound, per cent of control", "0%"],
  ["CC(=O)c1c(-c2ccncc2)[nH]c(-c2ccncc2)c1C", "kinase still bound, per cent of control", "no effect (inactive)"],
  ["CN(C)c1ccc(-c2cc3ncccc3c(NCCCCN)n2)cc1", "kinase still bound, per cent of control", "no effect (inactive)"],
  ["NC(=O)c1ccc(-c2cc(C(N)=O)c(N)c(-c3ccc(S(N)(=O)=O)cc3)c2)cc1", "kinase still bound, per cent of control", "no effect (inactive)"],
  ["Nc1ncnc2c1c(-c1cccc(O)c1)cn2C1CCNCC1", "kinase still bound, per cent of control", "no effect (inactive)"],
  ["c1ccc(-c2n[nH]cc2-c2ccnc3ccccc23)nc1", "kinase still bound, per cent of control", "no effect (inactive)"],
  ["N#Cc1ccc(-c2cnc3[nH]cc(NC(=O)c4cccnc4)c3c2)cc1", "kinase still bound, per cent of control", "no effect (inactive)"]
]}
